src = patent US8273761B2

Give measured melting point for each item. Keep answers brief.

Lookup: Consider the compound shown here: CCC(=O)NCCc1cnn2ccc3c(c12)CCO3 What is its recorded melting point?
Found: 96 to 97 °C

Lookup: Consider the compound shown here: CCC(=O)NC/C=C1\CCc2ncc3c(c21)CCO3 What is its recorded melting point?
Found: 163 to 164 °C

Lookup: Consider the compound shown here: CC(=O)NCCc1c(-c2ccc(F)cc2)nn2ccc3c(c12)CCO3 What is its recorded melting point?
Found: 160 to 162 °C

Lookup: Consider the compound shown here: CCC(=O)NCCc1c(-c2ccc(F)cc2)nn2ccc3c(c12)CCO3 What is its recorded melting point?
Found: 170 to 171 °C

Lookup: Consider the compound shown here: CCC(=O)NCCc1c(-c2ccccc2)nn2ccc3occc3c12 What is its recorded melting point?
Found: 161 to 163 °C

Lookup: Consider the compound shown here: CCc1nn2ccc3oc(C)cc3c2c1CCNC(C)=O What is its recorded melting point?
Found: 128 to 129 °C
